Data provenance: patent US10899738B2

# Tested Target: menin protein (Homo sapiens (Human))
# Sequence (O00255 whole entry): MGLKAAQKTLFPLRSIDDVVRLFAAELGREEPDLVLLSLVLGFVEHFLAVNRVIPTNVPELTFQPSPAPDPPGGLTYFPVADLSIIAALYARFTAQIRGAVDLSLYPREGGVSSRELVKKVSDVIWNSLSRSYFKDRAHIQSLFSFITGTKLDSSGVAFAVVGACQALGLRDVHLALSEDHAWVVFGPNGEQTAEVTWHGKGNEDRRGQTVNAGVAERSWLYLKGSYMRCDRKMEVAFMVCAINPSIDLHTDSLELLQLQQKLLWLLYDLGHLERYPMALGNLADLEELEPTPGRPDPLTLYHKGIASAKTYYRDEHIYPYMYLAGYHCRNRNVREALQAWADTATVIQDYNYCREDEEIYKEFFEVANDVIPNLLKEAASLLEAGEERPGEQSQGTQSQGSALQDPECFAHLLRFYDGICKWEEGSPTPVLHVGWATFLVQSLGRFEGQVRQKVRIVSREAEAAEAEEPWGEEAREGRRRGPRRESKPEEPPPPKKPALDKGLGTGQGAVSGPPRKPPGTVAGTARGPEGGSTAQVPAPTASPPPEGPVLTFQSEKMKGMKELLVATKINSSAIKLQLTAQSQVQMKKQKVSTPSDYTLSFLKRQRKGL
# Run Description: biochemical
# Type: binding
# Assay Conditions: FP competitive binding; menin protein 4 nM, FAM-MM2 probe 2 nM; read-out: Menin Binding Affinity IC50
pIC50: −log10 of the molar value.
# cutoff 6 applies to pIC50; >= gives 1, < gives 0

Solved cases (4 shown):
1. CCC(CC)C(=O)N1CCCCC1C1(C2CCN(CCCOc3ccc(C#N)cc3)CC2)CN(C)Cc2ccccc21 (stereo not shown) = 0
2. CC(C)N1Cc2ccccc2C(C2CCCC2)(C2CCN(CC3CN(c4ccc(S(=O)(=O)c5ccncc5)cc4)C3)CC2)C1 (stereo not shown) = 1
3. N#CC(c1ccccc1)(C1CCN(CC2CN(c3ccc(S(=O)(=O)c4ccncc4)cc3)C2)CC1)[C@H]1CCC[C@@H]1CO (mixture of isomers) = 1
4. N#Cc1ccc(OCCCN2CCC(C3(C4CCCC4)NCCc4c(F)cccc43)CC2)cc1 (stereo not shown) = 1

Okay, next one:
Task: Identify whether the reported pIC50 of the following molecule is 6 or greater: CCN1Cc2ccccc2C(C2CCCC2)(C2CCN(CC3CN(c4ccc(S(=O)(=O)c5ccncc5C)cc4)C3)CC2)C1 (stereo not shown)
Result: 1

* * *

# Tested Target: menin protein (Homo sapiens (Human))
# Run Description: biochemical
# Assay type: binding
# Assay Conditions: FP competitive binding; menin protein 4 nM, FAM-MM2 probe 2 nM; read-out: Menin Binding Affinity IC50
Entries and their IC50
Write down the value, and be sure its unit follows.

The cases that follow already have their IC50 on record.
1. COC(=O)N[C@@H]1CCC[C@H]1C(C#N)(c1ccccc1)C1CCN(CC2CN(c3ccc(S(=O)(=O)c4cnn(C)c4)cc3)C2)CC1 (mixture of isomers) = 1200 nM
2. CCC(=O)O[C@@H]1CCC[C@H]1C(C#N)(c1ccccc1)C1CCN(CC2CN(c3ccc(S(=O)(=O)c4ccncc4)cc3)C2)CC1 (mixture of isomers) = 1000 nM

Continue with the compound presented below.
Readout IC50 for CCN1Cc2ccccc2C(C2CCCC2)(C2CCN(CC3CN(c4ccc(S(=O)(=O)c5cnn(C)c5)cc4)C3)CC2)C1 (stereo not drawn) , test system menin protein (Homo sapiens (Human)), was 11 nM

* * *

# Run Description: Cell growth inhibition, CellTiter-Glo Luminescent Cell Viability Assay
# Assay type: cell-based
# Assay Conditions: MOLM-13, 96 h, read-out: Cell Growth Inhibition IC50 (μM) MOLM13, MOLM13 cells, 4 days, CellTiter-Glo
Measurement Label: IC50 (µM)
Respond numerically; units are µM and should not be typed.

1. CNC(=O)O[C@@H]1CCC[C@H]1C(Cn1ccnc1C)(c1cccc(F)c1)C1CCN(CC2CN(c3ccc(S(=O)(=O)c4cnn(C)c4)cc3)C2)CC1 (mixture of isomers) [compound 410] = 3.1
2. COC(=O)N[C@H]1CCC[C@@H]1C(C#N)(c1ccccc1)C1CCN(CC2CN(c3ccc(S(=O)(=O)c4ccncc4)cc3)C2)CC1 (mixture of isomers) [Cpd. No. 345] = 0.71
3. CC(=O)N[C@H]1CCC[C@@H]1C(C#N)(c1ccccc1)C1CCN(CC2CN(c3ccc(S(=O)(=O)C4CC4)cc3)C2)CC1 (mixture of isomers) [compound 281] = 2.35

response.value for CC(=O)O[C@H]1CCC[C@@H]1C1(C2CCN(CC3CN(c4ccc(S(=O)(=O)C5CC5)cc4)C3)CC2)CN(C)Cc2ccccc21 (mixture of isomers) [compound 203] (field: IC50) = 0.687
